Biological target: T1, full-length human CD22 fused with flag and Myc tags at the C-terminus, on HEK293 or K562 cells (human, UniProt P20273 20-847)
T1 construct: whole, on cells; also called CD22/K562; CD22/HEK293; not shown: C-terminal flag and Myc tags of the pCMV6-Entry vector
T1 sequence (looked up): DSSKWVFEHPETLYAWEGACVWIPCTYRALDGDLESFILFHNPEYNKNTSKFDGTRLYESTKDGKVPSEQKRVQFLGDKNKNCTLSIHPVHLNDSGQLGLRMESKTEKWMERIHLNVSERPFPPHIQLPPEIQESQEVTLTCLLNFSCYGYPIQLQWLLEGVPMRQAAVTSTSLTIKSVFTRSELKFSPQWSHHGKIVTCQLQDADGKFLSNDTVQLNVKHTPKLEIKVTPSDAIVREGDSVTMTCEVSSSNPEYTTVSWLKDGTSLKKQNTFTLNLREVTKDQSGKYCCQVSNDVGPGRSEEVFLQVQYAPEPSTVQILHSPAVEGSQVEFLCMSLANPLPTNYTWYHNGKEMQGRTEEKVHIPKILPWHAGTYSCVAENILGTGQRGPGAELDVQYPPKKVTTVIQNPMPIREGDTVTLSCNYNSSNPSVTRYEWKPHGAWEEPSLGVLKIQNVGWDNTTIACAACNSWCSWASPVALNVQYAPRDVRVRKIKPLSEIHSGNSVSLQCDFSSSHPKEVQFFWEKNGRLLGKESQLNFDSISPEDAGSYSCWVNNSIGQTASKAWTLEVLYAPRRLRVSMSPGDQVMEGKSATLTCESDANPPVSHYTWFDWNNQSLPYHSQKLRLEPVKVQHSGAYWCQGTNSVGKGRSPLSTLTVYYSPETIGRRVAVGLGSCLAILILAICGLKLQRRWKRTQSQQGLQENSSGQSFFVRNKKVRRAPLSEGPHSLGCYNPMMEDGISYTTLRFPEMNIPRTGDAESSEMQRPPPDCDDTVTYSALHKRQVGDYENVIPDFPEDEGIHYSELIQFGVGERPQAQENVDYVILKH
Experiment: FACS, scFv titrated on CD22-expressing cells, anti-His Alexa 488
As shown below, each of these binders has a reported EC50 value.

BINDER	EC50 (nM)
EP97-G05 scFv (scFv, VH-VL orientation; also called EP097-G05; not shown: C-terminal flag and 6xHIS tag) scFv: EVQLVQSGAEVKKPGASVKVSCKASGYTFTSYGISWVRQAPGQGLEWMGWISAYNGNTNYAQKLQGRVTMTTDTSTSTAYMELRSLRSDDTAVYYCARDYGDPSGDDYWGQGTLVTVSSGGGGSGGGGSGGGGSEIVLTQSPATLSVSPGEGVTLSCRASQSVSSNLAWYQQRPGQAPRLLIYGASIKATDVPDRFSGGGSGTDFTLSISNLQSEDFAVYYCQQYHTWPPVTFGGGTKVEIK	3.3
EP160-G04 scFv (scFv, VH-VL orientation; not shown: C-terminal flag and 6xHIS tag) scFv: QVQLVQSGAEVKKPGASVKVSCKASGYTFSSYGITWVRQAPGQGLEWMGWISAYNGNTNYAQKFQGRVTLTTDTSTSIAYMELRSLTSDDTAVYYCATGGQEDYWGQGTLVTVSSGGGGSGGGGSGGGGSEIVMTQSPATLSVSPGERATLSCRASQSVSSNLAWYQQKPGQAPRLLIYDASTRATGIPARFSGSGSGTEFTLTISSLQSEDFAVYYCQQYHNWAPLTFGGGTKVGIK	1.1
EP97-A10 scFv (scFv, VH-VL orientation; not shown: C-terminal flag and 6xHIS tag) scFv: QVQLVQSGAEVKRPGASVKVSCKASGYTFTSYGISWVRQAPGQGLEWMGWISAYNGNTNYAQKLQGRVTMTTDTSTSTAYMELRSLRSDDTAVYYCARDPGIAVAGTVDYWGQGTLVTVSSGGGGSGGGGSGGGGSEIVMTQSPATLSVSPGEGVTLSCRASQSVSSNLAWYQQRPGQAPRLLIYGASIKATDVPDRFSGGGSGTDFTLSISNVQSEDFAVYYCQQYHTWTPVTFGGGTKVEIK	1
EP160-C07 scFv (scFv, VH-VL orientation; also called EP160-007; not shown: C-terminal flag and 6xHIS tag) scFv: QMQLVQSGAEVKKPGASVKVSCKASGYTFTSYGISWVRQAPGQGLEWMGWISAYNGNTNYAQKLQGRVTMTTDTSTSTAYMELRSLRSDDTAVYYCARDAVAGSRGYWGQGTLVTVSSGGGGSGGGGSGGGGSEIVLTQSPATLSVSPGEGVTLSCRASQSVSSNLAWYQQRPGQAPRLLIYGASIKATDVPDRFSGGGSGTDFTLSISNLQSEDFAVYYCQQYHTWPPVTFGEGTKVEIK	5.2
EP160-F04 scFv (scFv, VH-VL orientation; not shown: C-terminal flag and 6xHIS tag) scFv: EVQLVQSGAEVKKPGASVKVSCKASGYTFTSYGISWVRQAPGQGLEWMGWISAYNGNTNYAQKLQGRVTMTTDTSTSTAYMELRSLKSDDTAVYYCAISIGAFDIWGQGTMVTVSSGGGGSGGGGSGGGGSEIVMTQSPATLSVSPGEEVTLSCRASQSVSSNLAWYQQRPGQAPRLLIYGASIKATDVPDRFSGGGSGTDFTLSISNLQSEDFAVYYCQQYHTWPPVTFGGGTKVEIK	2.79
EP160-H02 scFv (scFv, VH-VL orientation; not shown: C-terminal flag and 6xHIS tag) scFv: QVQLVQSGAEVKKPGASVKVSCKASGYTFTSYGISWVRQAPGQGLEWMGGIIAYNGNTNYAQKLQGRVTMTTDTSTSTAYMELRSLRSDDTAVYYCARDPPEYSSSAGTDYWGQGTLVTVSSGGGGSGGGGSGGGGSEIVMTQSPATLSVSPGEGVTLSCRASQSVSSNLAWYQQRPGQAPRLLIYGASIKATDVPDRFSGGGSGTDFTLSITNLQSEDFAVYYCQQYHTWSPVTFGGGTKVEIK	0.68
EP35-C8 scFv (scFv, VH-VL orientation; also called EP35-C08; not shown: C-terminal flag and 6xHIS tag) scFv: QVQLVQSGAEVKKPGASVKVSCKASGYTFTSYGISWVRQAPGQGLEWMGWISAYNGNTNYAQKLQGRVTMTTDTSTSTAYMELRSLGSDDTAVYYCARDSGSSDLDYWGQGTLVTVSSGGGGSGGGGSGGGGSEIVMTQSPATLSVSPGEGVTLSCRASQSVSSNLAWYQQKPGQAPRLLMYGASIKATDVPDRFSGGGSGTDFTLSISSLQSEDFAVYYCQQYHTWPPVTFGGGTKVEIK	4.6

# credit: patent US20220298257A1
